Experimental Target: human PKR1 receptors (Homo sapiens, UniProt Q8TCW9)
Sequence (Q8TCW9 whole entry): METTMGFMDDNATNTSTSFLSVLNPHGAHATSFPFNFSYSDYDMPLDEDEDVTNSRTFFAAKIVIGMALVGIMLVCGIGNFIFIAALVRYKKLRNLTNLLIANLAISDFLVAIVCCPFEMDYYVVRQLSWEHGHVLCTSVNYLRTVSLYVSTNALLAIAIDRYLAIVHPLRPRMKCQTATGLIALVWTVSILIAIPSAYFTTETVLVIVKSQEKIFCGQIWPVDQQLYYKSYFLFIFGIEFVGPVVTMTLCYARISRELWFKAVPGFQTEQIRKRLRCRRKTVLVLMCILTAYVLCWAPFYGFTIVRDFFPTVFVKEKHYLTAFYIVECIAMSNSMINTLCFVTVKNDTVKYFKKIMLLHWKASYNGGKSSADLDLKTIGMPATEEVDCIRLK
Protocol Description: PKR1 antagonist assay: block of PK1-mediated intracellular calcium release (FLIPR Tetra, Calcium 5 dye)
Experimental Setup: RBL2H3 cells expressing human PKR1; 10 min pre-incubation, stimulation with PK1 at EC80; calcium fluorescence
Experimental: Prokineticin receptor 1 (PKR1) antagonists may be functionally assessed by measurement of change in intracellular calcium levels induced by Gq mediated increase in inositol triphosphate (IP3) levels. The ability of a compound to block the intracellular release of calcium mediated by PK1 in RBL2H3 cells expressing human PKR1 receptors is determined as a measure of the compound's antagonist activity in vitro. […]
pIC50: −log10 of the molar value.
Quantity Kind: pIC50

Check out these entries, answers already filled in.
[[record]]
compound = "Cc1n[nH]c(C)c1S(=O)(=O)N1CCC(O)(Cc2ccc(Cl)cc2F)CC1"
experimental_target = "human PKR1 receptors (Homo sapiens, UniProt Q8TCW9)"
numeric_value = 5.16

[[record]]
compound = "Cc1nn(C)c(C)c1S(=O)(=O)N1CCC(O)(Cc2ccc(Cl)cc2)CC1"
experimental_target = "human PKR1 receptors (Homo sapiens, UniProt Q8TCW9)"
numeric_value = 5.80

[[record]]
compound = "Cc1n[nH]c(C)c1S(=O)(=O)N1CCC(Cc2ccc(Cl)cc2)CC1"
experimental_target = "human PKR1 receptors (Homo sapiens, UniProt Q8TCW9)"
numeric_value = 6.28


I = Cc1nn(C)c(C)c1S(=O)(=O)N1CCC(Oc2ccc(Cl)cc2)CC1C (centres unmarked)
II = COc1c(F)cc(OC2CCN(S(=O)(=O)c3c(C)n[nH]c3C)CC2)cc1F
Record comparison, field pIC50: mark the lower of I and II . Answer by quoting the chosen item's label.
II

* * *

Experimental Target: human PKR1 receptors (Homo sapiens)
Protocol Description: PKR1 antagonist assay: block of PK1-mediated intracellular calcium release (FLIPR Tetra, Calcium 5 dye)
Experimental Setup: RBL2H3 cells expressing human PKR1; 10 min pre-incubation, stimulation with PK1 at EC80; calcium fluorescence
Quantity Kind: IC50 (nM)

These solved cases illustrate the format of a correct answer.
[[record]]
compound = "Cc1nn(C)c(C)c1S(=O)(=O)N1CCC(Nc2ccc(Cl)c(Cl)c2)CC1"
quantity_kind = "IC50"
unit_spec = "nM"
numeric_value = 2700

[[record]]
compound = "CCOC(c1ccc(Cl)cc1)C1CCN(S(=O)(=O)c2c(C)n[nH]c2C)CC1 (stereo not drawn)"
quantity_kind = "IC50"
unit_spec = "nM"
numeric_value = 720


I = Cc1ccc(OC2CCN(S(=O)(=O)c3c(C)nn(C)c3C)CC2)cc1
II = Cc1c(S(=O)(=O)N2CCC(Oc3ccc(Cl)cc3)CC2)c(C(F)(F)F)nn1C
III = COc1cc(Cl)ccc1CC1(F)CCN(S(=O)(=O)c2c(C)n[nH]c2C)CC1
IV = Cc1ccc(OC2CCN(S(=O)(=O)c3c(C(F)(F)F)nn(C)c3C)CC2)cc1
V = COC(c1ccc(Cl)cc1)C1CCN(S(=O)(=O)c2c(C)nn(C)c2C)CC1 (stereo not drawn)
Order each entry by recorded IC50, climbing from the minimum. Please list each label once, in the requested order.
V, III, I, IV, II

1 = Cc1n[nH]c(C)c1S(=O)(=O)N1CCC(C(F)c2ccc(Cl)cc2)CC1 (single isomer, unassigned) [Example 106]
2 = Cc1n[nH]c(C)c1S(=O)(=O)N1CCC(C(C#N)c2ccc(Cl)cc2)CC1 (stereo not drawn)
3 = Cc1nn(C)c(C)c1S(=O)(=O)N1CCC(C(=O)c2ccc(Cl)cc2)CC1
4 = Cc1n[nH]c(C)c1S(=O)(=O)N1CCC(C(C)(O)c2ccc(Cl)cc2)CC1 (stereo not drawn)
5 = COc1cc(Cl)ccc1CC1CCN(S(=O)(=O)c2c(C)nn(C)c2C)CC1
Could you please order the items by IC50, going from the lowest number to the highest? Arrange the labels as the request states and list them.
5, 2, 3, 4, 1
(5: 50 nM, 2: 610 nM, 3: 1000 nM, 4: 2380 nM, 1: 4000 nM)

a = Cc1n[nH]c(C)c1S(=O)(=O)N1CCC(Oc2ccc(Cl)cc2F)CC1
b = CCn1nc(C)c(S(=O)(=O)N2CCC(Oc3ccc(C)cc3)CC2)c1C
Could you please tell me which of these two has the higher IC50: a or b ? Pick one; state its label.
b
(b: 2300 nM, a: 1100 nM)

a = Cc1n[nH]c(C)c1S(=O)(=O)N1CCC(Oc2ccccc2F)CC1
b = Cc1nn(C)c(C)c1S(=O)(=O)N1CCC(Oc2ccc(Cl)c(Cl)c2)CC1
Recorded IC50 values differ for a and b ; which one is higher? Provide the label of your selected option as the answer.
a
(a: 3730 nM, b: 1400 nM)

* * *

Experimental Target: human PKR1 receptors (Homo sapiens, UniProt Q8TCW9)
Protocol Description: PKR1 antagonist assay: block of PK1-mediated intracellular calcium release (FLIPR Tetra, Calcium 5 dye)
Experimental Setup: RBL2H3 cells expressing human PKR1; 10 min pre-incubation, stimulation with PK1 at EC80; calcium fluorescence
Quantity Kind: IC50 (nM)

[[record]]
molecule = "COc1ccc(OC2CCN(S(=O)(=O)c3c(C)n[nH]c3C)CC2)cc1F"
quantity_kind = "IC50"
numeric_value = 5900


A = Cc1nn(C)c(C)c1S(=O)(=O)N1CCC(Oc2ccc(Cl)cc2)C(C)C1 (stereo not drawn)
B = Cc1nn(C)c(C)c1S(=O)(=O)N1CCC(Oc2ccc(Cl)cc2)CC1
Field: entry with larger IC50 (options A / B ). Select an item and report its label.
A
(A: 2100 nM, B: 530 nM)

* * *

Experimental Target: UniProtKB Q8TCW9
Protocol Description: PKR1 antagonist assay: block of PK1-mediated intracellular calcium release (FLIPR Tetra, Calcium 5 dye)
Experimental Setup: RBL2H3 cells expressing human PKR1; 10 min pre-incubation, stimulation with PK1 at EC80; calcium fluorescence
pIC50: −log10 of the molar value.
Quantity Kind: pIC50

Observe how each entry below is paired with its result.
[[record]]
compound = "Cc1nn(C(F)F)c(C)c1S(=O)(=O)N1CCC(Oc2ccc(Cl)cc2Cl)CC1 [Example 29]"
experimental_target = "UniProtKB Q8TCW9"
numeric_value = 5.96

[[record]]
compound = "COc1cc(Cl)ccc1OC1CCN(S(=O)(=O)c2c(C)nn(C)c2C)CC1 [Example 74]"
experimental_target = "UniProtKB Q8TCW9"
numeric_value = 6.77

[[record]]
compound = "COc1ccc(OC2CCN(S(=O)(=O)c3c(C)nn(C)c3C)CC2)cc1F [Example 43]"
experimental_target = "UniProtKB Q8TCW9"
numeric_value = 5.20

[[record]]
compound = "Cc1nn(C)cc1S(=O)(=O)N1CCC(Oc2ccc(Cl)cc2Cl)CC1 [Example 27]"
experimental_target = "UniProtKB Q8TCW9"
numeric_value = 5.25

[[record]]
compound = "Cc1nn(C)c(C)c1S(=O)(=O)N1CCC(N(C)c2ccc(Cl)c(Cl)c2)CC1 [Example 54]"
experimental_target = "UniProtKB Q8TCW9"
numeric_value = 5.28

[[record]]
compound = "Cc1n[nH]c(C)c1S(=O)(=O)N1CCC(C(O)c2ccc(Cl)cc2)CC1 (centres unmarked) [Example 94]"
experimental_target = "UniProtKB Q8TCW9"
numeric_value = 5.76


P = COc1cc(Cl)ccc1CC1CCN(S(=O)(=O)c2c(C)n[nH]c2C)CC1 [Example 78]
Q = COc1cc(Cl)cnc1OC1CCN(S(=O)(=O)c2c(C)n[nH]c2C)CC1 [Example 85]
Could you please tell me which of these two has the higher pIC50: P or Q ? Pick one and reply with its label.
P
